Here the recorded Dissolution levels in FeSSIF pH 5.0 is given for each entry.
# Protocol text: Mini-dissolution in FaSSIF / FeSSIF medium at 37° C.
# Type: physicochemical
# Condition notes: FeSSIF pH 5.0, 37° C., 30 min
# Protocol: All dispersions were agitated at 37° C. for up to 2 hours. At defined time intervals (30 min. 60 min, 120 min), sample aliquots of homogeneous dispersions were withdrawn by a syringe, and filtrated via syringe filter adapters (PTFE, 0.45 μm).
Lab note: write values as number then unit, every time.

Example compounds with recorded Dissolution levels in FeSSIF pH 5.0:
Compound	Recorded measurement
C=CC(=O)N1CCC(CNc2ncnc(N)c2-c2ccc(Oc3ccccc3)cc2)CC1 [form A1]	190 μg/mL
C=CC(=O)N1CCC(CNc2ncnc(N)c2-c2ccc(Oc3ccccc3)cc2)CC1.O=C(O)CCC(=O)O [Oxalate-NF1]	600 μg/mL
C=CC(=O)N1CCC(CNc2ncnc(N)c2-c2ccc(Oc3ccccc3)cc2)CC1.O=C(O)CCC(=O)O [Succinate-NF1]	625 μg/mL

Turning now to a further record.
Problem: What value of Dissolution levels in FeSSIF pH 5.0 has been recorded for this entry: C=CC(=O)N1CCC(CNc2ncnc(N)c2-c2ccc(Oc3ccccc3)cc2)CC1.O=C(O)CCC(=O)O [Malonate-NF1]
Solution: 651 μg/mL

* * *

# Protocol text: Mini-dissolution in FaSSIF / FeSSIF medium at 37° C.
# Format: physicochemical
# Condition notes: FaSSIF pH 6.5, 37° C., 60 min
Reported property: Dissolution levels in FaSSIF pH 6.5 (μg/mL)
Number only, in μg/mL; omit the unit.

Compound	Recorded measurement
C=CC(=O)N1CCC(CNc2ncnc(N)c2-c2ccc(Oc3ccccc3)cc2)CC1.O=C(O)CCC(=O)O [Succinate-NF1]	95
C=CC(=O)N1CCC(CNc2ncnc(N)c2-c2ccc(Oc3ccccc3)cc2)CC1.O=C(O)CCC(=O)O [Oxalate-NF1]	54

Problem: What value of Dissolution levels in FaSSIF pH 6.5 has been recorded for this entry: C=CC(=O)N1CCC(CNc2ncnc(N)c2-c2ccc(Oc3ccccc3)cc2)CC1 [form A1]
Solution: 33

Problem: What value of Dissolution levels in FaSSIF pH 6.5 has been recorded for this entry: C=CC(=O)N1CCC(CNc2ncnc(N)c2-c2ccc(Oc3ccccc3)cc2)CC1.O=C(O)CCC(=O)O [Malonate-NF1]
Solution: 53

* * *

# Protocol text: Thermodynamic solubility (24 h, 37° C.) in FaSSIF medium or USP Phosphate buffer
# Assay type: physicochemical
# Condition notes: USP phosphate buffer, 37 °C, pH 7.4, aqueous buffer, thermodynamic from solid, USP Phosphate buffer pH 7.4, 37° C., 24 h; read-out: Thermodynamic solubility PBS buffer 7.4
Reported property: solubility thermodynamic at 24 h

Problem: What value of solubility thermodynamic at 24 h has been recorded for this entry: C=CC(=O)N1CCC(CNc2ncnc(N)c2-c2ccc(Oc3ccccc3)cc2)CC1 [form A2]
Solution: ~27 µg/mL

* * *

# Protocol text: Mini-dissolution in FaSSIF / FeSSIF medium at 37° C.
# Assay type: physicochemical
# Condition notes: FaSSIF pH 6.5, 37° C., 30 min
Reported property: Dissolution levels in FaSSIF pH 6.5 (μg/mL)
Number only, in μg/mL; omit the unit.

Compound	Recorded measurement
C=CC(=O)N1CCC(CNc2ncnc(N)c2-c2ccc(Oc3ccccc3)cc2)CC1.O=C(O)CCC(=O)O [Oxalate-NF1]	50
C=CC(=O)N1CCC(CNc2ncnc(N)c2-c2ccc(Oc3ccccc3)cc2)CC1.O=C(O)CCC(=O)O [Succinate-NF1]	92
C=CC(=O)N1CCC(CNc2ncnc(N)c2-c2ccc(Oc3ccccc3)cc2)CC1.O=C(O)CCC(=O)O [Malonate-NF1]	47

Turning now to a further record.
Problem: What value of Dissolution levels in FaSSIF pH 6.5 has been recorded for this entry: C=CC(=O)N1CCC(CNc2ncnc(N)c2-c2ccc(Oc3ccccc3)cc2)CC1 [form A1]
Solution: 25

* * *

# Protocol text: Water Vapour Sorption isotherm (25° C., DVS-Intrinsic), hygroscopicity acc. to Ph. Eur. 5.11.
# Assay type: physicochemical
Reported property: hygroscopicity classification according to Ph. Eur. Criteria (section 5.11.)

Molecule	Recorded measurement
C=CC(=O)N1CCC(CNc2ncnc(N)c2-c2ccc(Oc3ccccc3)cc2)CC1.O=C(O)CCC(=O)O [Malonate-NF1]	Slightly hygroscopic
C=CC(=O)N1CCC(CNc2ncnc(N)c2-c2ccc(Oc3ccccc3)cc2)CC1.O=C(O)CCC(=O)O [Oxalate-NF1]	Slightly hygroscopic
C=CC(=O)N1CCC(CNc2ncnc(N)c2-c2ccc(Oc3ccccc3)cc2)CC1 [form NF6]	slightly hygroscopic
C=CC(=O)N1CCC(CNc2ncnc(N)c2-c2ccc(Oc3ccccc3)cc2)CC1 [form A2]	slightly hygroscopic

Turning now to a further record.
Problem: What value of hygroscopicity classification according to Ph. Eur. Criteria (section 5.11.) has been recorded for this entry: C=CC(=O)N1CCC(CNc2ncnc(N)c2-c2ccc(Oc3ccccc3)cc2)CC1.O=C(O)CCC(=O)O [Citrate-NF1]
Solution: Slightly hygroscopic

* * *

# Protocol text: Mini-dissolution in FaSSIF / FeSSIF medium at 37° C.
# Assay type: physicochemical
# Condition notes: FeSSIF pH 5.0, 37° C., 60 min
Here the recorded Dissolution levels in FeSSIF pH 5.0 is given for each entry.
Number only, in μg/mL; omit the unit.

Example compounds with recorded Dissolution levels in FeSSIF pH 5.0:
Compound	Recorded measurement
C=CC(=O)N1CCC(CNc2ncnc(N)c2-c2ccc(Oc3ccccc3)cc2)CC1 [form A1]	205
C=CC(=O)N1CCC(CNc2ncnc(N)c2-c2ccc(Oc3ccccc3)cc2)CC1.O=C(O)CCC(=O)O [Malonate-NF1]	694
C=CC(=O)N1CCC(CNc2ncnc(N)c2-c2ccc(Oc3ccccc3)cc2)CC1.O=C(O)CCC(=O)O [Succinate-NF1]	708

Turning now to a further record.
Problem: What value of Dissolution levels in FeSSIF pH 5.0 has been recorded for this entry: C=CC(=O)N1CCC(CNc2ncnc(N)c2-c2ccc(Oc3ccccc3)cc2)CC1.O=C(O)CCC(=O)O [Oxalate-NF1]
Solution: 700

* * *

# Protocol text: Mini-dissolution in FaSSIF / FeSSIF medium at 37° C.
# Format: physicochemical
# Condition notes: FaSSIF pH 6.5, 37° C., 120 min (2 h)
Here the recorded Dissolution levels in FaSSIF pH 6.5 is given for each entry.
Number only, in μg/mL; omit the unit.

Compound	Reported property	Recorded measurement
C=CC(=O)N1CCC(CNc2ncnc(N)c2-c2ccc(Oc3ccccc3)cc2)CC1.O=C(O)CCC(=O)O [Oxalate-NF1]	Dissolution levels in FaSSIF pH 6.5	58
C=CC(=O)N1CCC(CNc2ncnc(N)c2-c2ccc(Oc3ccccc3)cc2)CC1.O=C(O)CCC(=O)O [Malonate-NF1]	Dissolution levels in FaSSIF pH 6.5	75

Turning now to a further record.
Problem: What value of Dissolution levels in FaSSIF pH 6.5 has been recorded for this entry: C=CC(=O)N1CCC(CNc2ncnc(N)c2-c2ccc(Oc3ccccc3)cc2)CC1.O=C(O)CCC(=O)O [Succinate-NF1]
Solution: 100

* * *

# Protocol text: Water Vapour Sorption isotherm (25° C., DVS-Intrinsic), hygroscopicity acc. to Ph. Eur. 5.11.
# Format: physicochemical
# Experimental: (based on multiple measurements on different samples of form A2). […] DSC scan of form A2 was acquired on a Mettler-Toledo DSC 821 with a heating rate of 50 K/min, using nitrogen purge gas at 50 mL/min. TGA scan of form A2 was acquired on a Mettler-Toledo TGA 851 with a heating rate of 5 K/min, using nitrogen purge gas at 50 mL/min. […] Eur. Criteria (section 5.11.). Water Vapour Sorption isotherm was acquired on a DVS-Intrinsic system from SMS. […]
Reported property: hygroscopicity classification according to Ph. Eur. Criteria (section 5.11.)

Compound	Recorded measurement
C=CC(=O)N1CCC(CNc2ncnc(N)c2-c2ccc(Oc3ccccc3)cc2)CC1.O=C(O)CCC(=O)O [Succinate-NF1]	Slightly hygroscopic
C=CC(=O)N1CCC(CNc2ncnc(N)c2-c2ccc(Oc3ccccc3)cc2)CC1 [form NF5]	slightly hygroscopic
C=CC(=O)N1CCC(CNc2ncnc(N)c2-c2ccc(Oc3ccccc3)cc2)CC1.O=C(O)CCC(=O)O [Fumarate-NF1]	Slightly hygroscopic
C=CC(=O)N1CCC(CNc2ncnc(N)c2-c2ccc(Oc3ccccc3)cc2)CC1 [form A1]	slightly hygroscopic

* * *

# Protocol text: Mini-dissolution in FaSSIF / FeSSIF medium at 37° C.
# Format: physicochemical
# Condition notes: FeSSIF pH 5.0, 37° C., 120 min (2 h)
Here the recorded Dissolution levels in FeSSIF pH 5.0 is given for each entry.
Number only, in μg/mL; omit the unit.

Example compounds with recorded Dissolution levels in FeSSIF pH 5.0:
Compound	Unit descriptor	Dissolution levels in FeSSIF pH 5.0
C=CC(=O)N1CCC(CNc2ncnc(N)c2-c2ccc(Oc3ccccc3)cc2)CC1.O=C(O)CCC(=O)O [Succinate-NF1]	μg/mL	743
C=CC(=O)N1CCC(CNc2ncnc(N)c2-c2ccc(Oc3ccccc3)cc2)CC1.O=C(O)CCC(=O)O [Malonate-NF1]	μg/mL	740

Problem: What value of Dissolution levels in FeSSIF pH 5.0 has been recorded for this entry: C=CC(=O)N1CCC(CNc2ncnc(N)c2-c2ccc(Oc3ccccc3)cc2)CC1.O=C(O)CCC(=O)O [Oxalate-NF1]
Solution: 740

Source of measurements: patent US10689363B2
